molecular target: Protein smoothened (Homo sapiens); assay: Binding affinity to recombinant human Smo receptor assessed as maximum response at equilibrium by SPR analysis
Sequence (Q99835 whole entry): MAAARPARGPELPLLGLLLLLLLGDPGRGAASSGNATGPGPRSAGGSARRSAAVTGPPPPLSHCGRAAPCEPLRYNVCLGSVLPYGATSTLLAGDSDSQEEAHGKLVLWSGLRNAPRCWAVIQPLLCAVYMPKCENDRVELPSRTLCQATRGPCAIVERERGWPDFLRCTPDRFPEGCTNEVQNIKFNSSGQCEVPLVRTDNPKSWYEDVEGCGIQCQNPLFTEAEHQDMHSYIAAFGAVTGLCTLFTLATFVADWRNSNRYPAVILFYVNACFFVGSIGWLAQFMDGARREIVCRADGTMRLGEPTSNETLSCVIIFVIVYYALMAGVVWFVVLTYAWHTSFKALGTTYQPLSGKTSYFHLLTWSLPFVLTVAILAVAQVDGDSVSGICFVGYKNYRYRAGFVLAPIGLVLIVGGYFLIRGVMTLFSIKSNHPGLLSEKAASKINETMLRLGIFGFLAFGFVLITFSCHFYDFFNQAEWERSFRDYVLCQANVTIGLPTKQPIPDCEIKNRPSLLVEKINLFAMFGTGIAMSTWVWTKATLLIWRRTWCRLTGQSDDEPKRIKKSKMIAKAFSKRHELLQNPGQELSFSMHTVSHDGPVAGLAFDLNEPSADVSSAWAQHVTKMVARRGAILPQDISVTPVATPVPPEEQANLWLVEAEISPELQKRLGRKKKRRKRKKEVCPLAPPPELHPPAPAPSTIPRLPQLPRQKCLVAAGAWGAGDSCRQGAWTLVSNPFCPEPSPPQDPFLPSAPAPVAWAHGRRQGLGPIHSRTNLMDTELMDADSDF
Could you please report measured Rmax for the items listed next?
Expressed in RU, but write only the number.

Q: Give reported Rmax value for `O=C(Nc1ccc(Cl)c(-c2nnc3c(Cl)cccn23)c1)c1ccc(Cl)nc1Cl`
A: 90.5

Q: Fill in Rmax for record `O=C(Nc1ccc(Cl)c(-c2nnc3c(Cl)cccn23)c1)c1cccc(Cl)c1`
A: 41.2

Q: Give me measured Rmax, please, for this compound: `O=C(Nc1ccc(Cl)c(-c2nnc3c(Cl)cccn23)c1)c1ccc(C(F)(F)F)cc1F`
A: 49.2

Q: Note Rmax for the compound shown: `CS(=O)(=O)c1ccc(C(=O)Nc2ccc(Cl)c(-c3ccccn3)c2)c(Cl)c1`
A: 4.63

Q: Tell me measured Rmax for `O=C(Nc1ccc(Cl)c(-c2nnc3c(Cl)cccn23)c1)c1ccc(C(F)(F)F)nc1Cl` please.
A: 8.44
